The origin of these recorded values is the supplement of paper PMC9170038.

- System: MS2 coat protein
- measurement_notes: apparent KD of MS2 coat protein; designed switch direction (-1 OFF switch, 1 ON switch): -1; higher = weaker reporter binding
- experimental_setup: input ligand: microRNA oligo, concentration not stated
So basically: apparent KD of MS2 coat protein at 30 nM or higher? That is Met. Lower than 30 nM? That is Not met.

// known answers, use as guide
{"sequence_content": "GGAUAUAAGGAAGGAUAUGAGCGCAACUGACGAUCAGAAGGUCCACAUGAGGAUCACCCAUGUGAUCUAUCAAUAUUAUACAUG [Prohibition 94 - Jieux - Exclusion NG 1] (Eterna round: R96, puzzle: Exclusion NG 1)", "class_assignment": "Met"}
{"sequence_content": "UUAUUGUAUGUAGGAUAUGCAUAUUAUUAUUAUGCAGAAGGACAUGAGGAUCACCCAUGUAUAUUAUUAUUAUAUAUUAUAUAU [Title] (Eterna round: R96, puzzle: Exclusion NG 1)", "class_assignment": "Not met"}
{"sequence_content": "CCAUGGGAGCGAGGAUAUAGACCAUGGGAAGAGCUAGAAGGCGCUGACAUGAGGAUCACCCAUGUGUUCAUGAGGAGGUGGACA (Eterna round: R96, puzzle: Exclusion NG 1)", "class_assignment": "Met"}
{"sequence_content": "UAUUUAUAUGAAGGAUAUACUUAACAUGAGGAUCACCCAUGUGGUGUUGUGAGUGAGUGAGUUUAGUAGAAGGUCAAUGAUUUU [JMF's solution 74] (Eterna round: R96, puzzle: Exclusion NG 2)", "class_assignment": "Met"}

Query: Does the sequence GUCAGCUCGUCAGGAUAUACAUGCGUGCUUCGGCACGAAUUUAAGAUCACAUGAGGAUCACCCAUGUAGAAGGGACGAGCUGAC [ENG2/3-B1] (Eterna round: R96, puzzle: Exclusion NG 2) have recorded apparent KD of MS2 coat protein that is 30 nM or more?
Reply: Met

Query: Does the sequence GCAGCGUAGUCUAAAUAAGACAUACAUGAGGAUCACCCAUGUCAGGAUAUGGUCUGGAUUACAGGCCAGAAGGGACAAAGCUGC [Eli exng3 - 002] (Eterna round: R96, puzzle: Exclusion NG 3) have recorded apparent KD of MS2 coat protein that is 30 nM or more?
Reply: Not met
